Assay: gradient 5% acetonitrile 3 min, to 50% in 2 min, to 85% in 15 min, held 3 min, 100 µL/min
Conditions: column: Zorbax Extend-C18 2.1 x 50 mm; eluents: water / acetonitrile, 0.1% formic acid
measured.metric: RP-LC retention time (s)

molecule	RP-LC retention time (s)
CC(=O)N1CCc2nn(CC(=O)N3CCN(c4ccccc4F)CC3)c(=O)cc2C1	652
O=c1c2sccc2n(Cc2nc(-c3ccccc3)no2)c(=O)n1Cc1ccccc1	985
Cc1cc(C)c(S(=O)(=O)N2CCC(c3cc(N)on3)CC2)cc1C	879
CCc1cc(C2CCCN2Cc2ccc(OCC(N)=O)c(OC)c2)on1 (stereo not given)	570
CCOc1ccccc1C(=O)Nc1ccc2c(c1)Sc1ncccc1C(=O)N2C	806
O=C(Nc1ccc(S(=O)(=O)Nc2nccs2)cc1)c1ccco1	616
CCCNC(=O)Cc1nnc(-c2ccc(C)cc2)o1	710
COCCN1C(=O)[C@H]2CN(Cc3ccc(OC)c(OC)c3Cl)C[C@H]2C1=O	620
CCc1ccc(-n2cc(C(=O)O)nn2)cc1	727
Cc1cc(C)cc(NC(=O)C2CCN(S(=O)(=O)c3cc(C(=O)N4CCOCC4)cs3)CC2)c1	760
